- Assay target: T1, human NPR1 extracellular domain expressed with a C-terminal mouse IgG2a (hNPR1-mFc) (human)
- T1 construct: also called hNPR1-Fc; human NPR1 dimer
- T1 chain: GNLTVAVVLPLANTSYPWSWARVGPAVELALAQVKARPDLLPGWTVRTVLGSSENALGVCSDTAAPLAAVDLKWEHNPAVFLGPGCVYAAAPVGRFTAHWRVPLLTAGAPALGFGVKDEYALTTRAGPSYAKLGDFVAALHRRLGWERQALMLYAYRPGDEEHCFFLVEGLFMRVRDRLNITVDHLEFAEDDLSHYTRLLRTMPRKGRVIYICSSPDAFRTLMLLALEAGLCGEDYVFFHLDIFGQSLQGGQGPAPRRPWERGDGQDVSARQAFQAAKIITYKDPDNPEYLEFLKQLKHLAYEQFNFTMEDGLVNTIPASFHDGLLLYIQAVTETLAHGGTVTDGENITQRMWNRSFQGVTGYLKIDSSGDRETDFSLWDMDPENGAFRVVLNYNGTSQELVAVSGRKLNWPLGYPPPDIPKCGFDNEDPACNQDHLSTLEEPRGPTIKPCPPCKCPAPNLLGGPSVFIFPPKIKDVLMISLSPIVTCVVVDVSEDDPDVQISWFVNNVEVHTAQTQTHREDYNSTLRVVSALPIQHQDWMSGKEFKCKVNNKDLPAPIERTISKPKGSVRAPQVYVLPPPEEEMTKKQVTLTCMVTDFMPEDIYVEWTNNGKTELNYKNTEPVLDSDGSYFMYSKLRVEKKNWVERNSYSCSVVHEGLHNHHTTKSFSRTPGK
- Test: SPR, mAb captured, 25 C
Parameter: 100 nM Ag Bound (RU)
Please state the figure in RU; there is no need to write the unit.

Below: 2 binders and their reported 100 nM Ag Bound (RU).
mAb22805 (antibody, V domains shown) VH: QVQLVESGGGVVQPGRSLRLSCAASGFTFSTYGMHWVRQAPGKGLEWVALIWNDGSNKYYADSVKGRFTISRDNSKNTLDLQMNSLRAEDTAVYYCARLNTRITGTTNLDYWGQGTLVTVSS VL: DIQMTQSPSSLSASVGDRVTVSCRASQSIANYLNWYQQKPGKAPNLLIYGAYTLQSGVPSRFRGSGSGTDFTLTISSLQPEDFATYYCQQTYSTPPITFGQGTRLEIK | 2
mAb25497 (antibody, V domains shown) VH: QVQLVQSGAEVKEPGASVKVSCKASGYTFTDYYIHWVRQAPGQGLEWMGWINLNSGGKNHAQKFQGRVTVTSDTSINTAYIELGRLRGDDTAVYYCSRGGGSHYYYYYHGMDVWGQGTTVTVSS VL: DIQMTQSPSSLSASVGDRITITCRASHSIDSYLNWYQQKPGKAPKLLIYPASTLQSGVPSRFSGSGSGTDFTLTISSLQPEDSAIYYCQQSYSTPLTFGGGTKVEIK | 49

(Q) Look up 100 nM Ag Bound (RU) for this binder: mAb22809 (antibody, V domains shown) VH: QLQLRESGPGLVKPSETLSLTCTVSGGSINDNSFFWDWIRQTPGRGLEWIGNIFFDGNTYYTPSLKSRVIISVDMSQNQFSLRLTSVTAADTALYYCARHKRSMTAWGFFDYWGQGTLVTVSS VL: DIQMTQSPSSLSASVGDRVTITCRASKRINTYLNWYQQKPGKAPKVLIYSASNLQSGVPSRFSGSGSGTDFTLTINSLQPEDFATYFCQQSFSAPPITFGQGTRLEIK
(A) -2
